molecular target: Heat shock protein HSP90 (Homo sapiens, UniProt P07900+P08238); assay: Binding affinity to recombinant human N-terminal truncated HSP90 (9 to 236 residues) expressed in Escherichia coli BL21 (DE3) assessed as off rate constant by biolayer interferometry assay
Calls of active or inactive are those of the source. No cut-off for these calls is given here.
Value Kind: K

> print(dat)
                                    molecule  value.kind      result
 1  CC(C)c1cc(C(C)C)c(S(=O)(=O)Nc2ccc(Nc3ccnc(N4CCNCC4)n3)cc2)c(C(C)C)c1           K    inactive
 2  Cl.Cn1cnc(S(=O)(=O)Nc2ccc(Nc3ccnc(N4CCNCC4)n3)cc2)c1           K    inactive
 3  O=S(=O)(Nc1ccc(Nc2ccnc(N3CCNCC3)n2)cc1)c1ccc(OC(F)(F)F)cc1           K    inactive
 4  Cl.O=S(=O)(Nc1ccc(Nc2ccnc(N3CCNCC3)n2)cc1)c1ccc2c(c1)CCO2           K  0.0321 s⁻¹
 5  Cl.O=S(=O)(Nc1ccc(Nc2ccnc(N3CCNCC3)n2)cc1)c1ccc2c(c1)CCC2           K   0.337 s⁻¹
 6  O=S(=O)(Nc1ccc(Nc2ccnc(N3CCNCC3)n2)cc1)c1ccc(Cl)cc1           K    inactive
 7  O=S(=O)(Nc1ccc(Nc2ccnc(N3CCNCC3)n2)cc1)c1ccc(Br)cc1           K    inactive
 8  N#Cc1ccc(S(=O)(=O)Nc2ccc(Nc3ccnc(N4CCNCC4)n3)cc2)cc1           K    inactive
 9  O=S(=O)(Nc1ccc(Nc2ccnc(N3CCNCC3)n2)cc1)c1ccc(Oc2ccccc2)cc1           K    inactive
10  O=S(=O)(Nc1ccc(Nc2ccnc(N3CCNCC3)n2)cc1)c1ccc(F)cc1           K    inactive

###

biological target: Heat shock protein HSP90 (Homo sapiens, UniProt P07900+P08238); experiment: Binding affinity to recombinant human N-terminal truncated HSP90 (9 to 236 residues) expressed in Escherichia coli BL21 (DE3) assessed as dissociation rate constant by biolayer interferometry assay
// assign Yes if Kd falls strictly below 10 µM, else No (ties count as No)

> print(dat)
                                   molecule  category.label
1  Cl.O=S(=O)(Nc1ccc(Nc2ccnc(N3CCNCC3)n2)cc1)c1ccc2c(c1)CCC2             Yes
2  CCOC(=O)c1ccc(S(=O)(=O)Nc2ccc(Nc3ccnc(N4CCNCC4)n3)cc2)cc1.Cl             Yes
3  CC(C)c1ccc(S(=O)(=O)Nc2ccc(Nc3ccnc(N4CCNCC4)n3)cc2)cc1.Cl              No
4  Cl.O=S(=O)(Nc1ccc(Nc2ccnc(N3CCNCC3)n2)cc1)c1ccc2c(c1)CCO2              No
5  CCCCc1ccc(S(=O)(=O)Nc2ccc(Nc3ccnc(N4CCNCC4)n3)cc2)cc1.Cl              No
6  CCCCCc1ccc(S(=O)(=O)Nc2ccc(Nc3ccnc(N4CCNCC4)n3)cc2)cc1.Cl              No
7  Cc1c(C)c(S(=O)(=O)Nc2ccc(Nc3ccnc(N4CCNCC4)n3)cc2)c(C)c2c1OC(C)(C)C2.Cl             Yes
8  CCCc1ccc(S(=O)(=O)Nc2ccc(Nc3ccnc(N4CCNCC4)n3)cc2)cc1.Cl              No
9  Cl.O=S(=O)(Nc1ccc(Nc2ccnc(N3CCNCC3)n2)cc1)c1ccc(-c2ccccc2)cc1              No
